Catalogue of growth readings, one per entry.
System: COLO 205 colon
Test: NCI-60 one-dose screen, 48 h (100 = growth as untreated, 0 = no growth, -100 = all killed)
Conditions: 10 µM unless noted
Compounds without any hit were thinned out: in the full panel of roughly 83,000, 20% have a hit.
measurement_kind: growth (%)

1. Clc1ccc(-c2cn(-c3ccccc3)c(-c3ccccc3)n2)cc1 : 107
2. O=C(O)C1C[C@](O)(c2ccc(F)cc2)[C@@H](c2ccc(F)cc2)O1 (some centres not stated) : 110
3. COC1=CC(c2ccc[nH]2)=N/C1=C\c1[nH]c(C)c(C(=O)OCCn2cc(CCC[C@@H]3Cc4cc(O)ccc4C4CC[C@]5(C)[C@@H](O)CC[C@H]5C43)nn2)c1C (some centres not stated) : 80.5
4. C=C1C(=O)O[C@H]2[C@H]1CC/C(COC(=O)/C=C\C(=O)NCc1ccc(Cn3c(=O)sn(-c4ccc(C#N)cc4)c3=O)cc1)=C\CC[C@@]1(C)O[C@@H]21 : -55.4
5. COc1cc(NC(=O)c2cccc(-c3cc(=O)c4c(O)c(OC)c(OC)cc4o3)c2)cc(OC)c1OC : 67.7
6. Cc1c(C(=O)O)nnn1-c1nccs1 : 107
7. O[C@H]1CO[C@H]2[C@@H]1OC[C@@H]2Oc1ccc(Nc2nc(Nc3ccc(F)c(Cl)c3)ncc2F)cc1Cl : 116
8. N#Cc1c(N)nc2c(nnn2-c2cccc(Br)c2)c1N : 105
9. COc1cc(/C=C/C(=O)c2ccc(Nc3nc(Nc4ccccc4)nc(Nc4ccc(Cl)cc4)n3)cc2)cc(OC)c1OC : 94.8
10. Cc1nc(Nc2ccc(NC(=S)Nc3ccccc3)cc2)nc2nc(Nc3cccc(Cl)c3)[nH]c(=O)c12 : 122
11. C=CCO[C@H]1CO[C@H]2[C@@H]1OC[C@@H]2Oc1ccc(Nc2ccnc(Nc3ccc(O[C@H]4CO[C@H]5[C@@H]4OC[C@@H]5OCC=C)c(Cl)c3)n2)cc1Cl : 29.2
12. NS(=O)(=O)c1cnccc1-n1ccc(=O)c(S(N)(=O)=O)c1 : 94.4
13. COc1ccc(OC)c(Nc2nc3nonc3nc2Nc2cccc(Br)c2)c1 : -79.3
14. Cc1nc(C)c(-c2nn3c(-c4cccc(F)c4)nnc3s2)s1 : 101
15. N#Cc1c(N)nc2c(nnn2-c2cccc(C(F)(F)F)c2)c1N : 104
16. C=C1C(=O)O[C@H]2[C@H]1CC/C(COC(=O)/C=C\C(=O)NCc1ccc(Cn3c(=O)sn(CCCI)c3=O)cc1)=C\CC[C@@]1(C)O[C@@H]21 : -52.7
17. COc1ccc(-n2nnc(C(=O)NCCc3c[nH]c4ccc(F)cc34)c2C)cc1 : 111

====

Tested on: OVCAR-3 ovarian
Test: NCI-60 one-dose screen, 48 h
Conditions: 10 µM unless noted
This is part of a sample that, as a whole, favours compounds with a hit. Of some 83,000 tested, about 20% had one in any assay. Calls of active or inactive are those of the source. Rule for the calls: active = growth percent below 10; inactive = the rest.
Possible outcomes: Y (active), N (inactive)

1. CCN(CC)CC(O)CNc1c2ccc(Cl)cc2nc2ccc(OC)cc12 (stereo not given) : Y
2. C[C@H]1[C@H](C)CC[C@]2(C(=O)N3CCN(C)CC3)CC[C@]3(C)C(=CC[C@@H]4[C@@]5(C)C/C(=C/c6cccnc6)C(=O)C(C)(C)[C@@H]5CC[C@]43C)[C@H]12 : Y
3. COc1cccc(-c2nc3sccn3c2-c2ccnc(NCCNS(=O)(=O)c3c(Cl)cccc3Cl)c2)c1 : N
4. C(=C\c1nc2ccccc2[nH]1)/c1nc2ccccc2[nH]1 : N
5. COc1ccc(CN2C(=O)/C(=C\c3cc(OC)c(OC)c(OC)c3)c3ccccc32)cc1 : Y
6. O=C(C[C@@]1(O)C(=O)Nc2c(Cl)ccc(Cl)c21)c1ccc(C2CC2)cc1 : Y
7. Cc1nc(Nc2ccc(NC(=S)Nc3ccccc3)cc2)nc2nc(SCc3ccccc3)[nH]c(=O)c12 : N
8. Fc1ccc(Nc2nc(Nc3ccc(-c4nc5ccccc5[nH]4)cc3)c3cn[nH]c3n2)cc1 : N
9. O=C1Nc2ccccc2SC1c1ccccc1Cl (stereo not given) : N
10. CCOc1cc(N)ccc1C(=O)NCCCN(CC)CC : N
11. N#Cc1c(NC(=O)c2ccccc2I)sc2c1CCCC2 : N
12. COc1ccc(-c2cc(-c3ccc(Nc4nc(Nc5ccccc5)nc(Nc5ccc(Cl)cc5)n4)cc3)nc(N)n2)cc1 : N
13. COc1cccc(CCC2CCCN(c3cc(C)nc(N)n3)C2)c1 (stereo not given) : N
14. C=C1C(=O)O[C@H]2[C@H]1CC/C(COC(=O)/C=C\C(=O)NCc1ccc(Cn3c(=O)sn(-c4ccc(Cl)cc4)c3=O)cc1)=C\CC[C@@]1(C)O[C@@H]21 : Y
15. Cn1nnnc1-c1ccc(N)cc1 : N
16. O=C1NN(C(=O)c2ccc(O)cc2)C(c2ccccc2)=N/C1=C\c1cn(-c2ccccc2)nc1-c1ccccc1 : N
17. COc1ccc(/C(C)=C(\c2ccc(Cl)cc2)c2ccc(OCCN(C)C)cc2)cc1F : N
18. CCOC(=O)c1sc(-c2ccc(OS(=O)(=O)c3ccc(C(C)(C)C)cc3)c(C=O)c2)nc1C : N
19. Clc1ccc2c(NCCCN3CCN(c4nc(N5CCOCC5)nc5ccccc45)CC3)ccnc2c1 : Y
20. CCc1c(C(=O)N[C@@H]2c3cc(Cl)ccc3CC[C@@H]2O)[nH]c(C)c1C(C)=O : N
21. CCN(CC)CCCNC(=O)c1ccc(N)cc1 : N
22. COc1cc2oc3cc(C)oc(=O)c3c2cc1OC : N
23. CCCCCCCCCCCCCCCCCC1=NCCN1C(=O)OCCO : N
24. CCN(CCO)CC(=O)c1cc(Cl)cc(Cl)c1Cl : N
25. COc1cc(NC(=O)c2cccc(-c3cc(=O)c4c(OC)c(OC)c(OC)cc4o3)c2)cc(OC)c1OC : N
26. O=C(NCCOCCOCCNc1cccc2c1C(=O)N(C1CCCNC1=O)C2=O)c1cc2c(o1)C(=O)c1ccccc1C2=O (stereo not given) : Y
27. CC(C)(C)N1CC(OC(N)=O)C1 : N
28. O=C(NCCN1CCC(O)CC1)c1cc2c(o1)C(=O)c1ccccc1C2=O : Y
29. COc1ccc2cc(-c3ccc(C(=O)NN)c(C)n3)ccc2c1 : N
30. CC(c1ccc(-n2cccn2)cc1)c1cnc(N2CCc3ccc(C(N)=O)cc3C2)s1 (stereo not given) : N
31. COc1ccc2c(c1)/C(=C\c1sc(=S)[nH]c1O)C(C(=O)O)=N2 : N
32. O=S(=O)(NCCNc1cc(-c2c(-c3cccc(O)c3)nc3sccn23)ccn1)c1ccc(Cl)cc1 : N
33. CN1CCC(=C2c3ccccc3C=Cc3ccccc32)CC1 : N
34. CN(CCC(=O)/C(=C\c1ccccc1)c1ccc(Cl)cc1)Cc1ccccc1 : Y
35. O=C(NC1CCOCC1)c1ccc2c(c1)CN(c1ncc(Cc3cccc(-n4cccn4)c3)s1)CC2 : N
36. CCC(O)(C(c1ccccc1)c1ccccn1)C(c1ccccc1)c1ccccn1 (stereo not given) : N
37. CCNCCNc1cc(-c2ccc(Cl)cc2)c(C#N)c2nc3ccccc3n12 : Y
38. COC(=O)/C(=C\c1ccc(OC)cc1)C(=O)N1c2ccccc2Sc2ccccc21 : N
39. O=C(NCc1cccnc1)c1cc(-c2csc3c(=O)cc(N4CCOCC4)oc23)cc2c1OCCO2 : N
40. C=C(C)[C@@H]1CC[C@]2(C(=O)NCC(=O)O)CC[C@]3(C)[C@H](CC[C@@H]4[C@@]5(C)Cc6c([nH]c7ccccc67)C(C)(C)[C@@H]5CC[C@]43C)[C@@H]12 : N

====

# Lookup of reported growth keyed by entry
System: SK-MEL-5 melanoma
Experiment: NCI-60 one-dose screen, 48 h (100 = growth as untreated, 0 = no growth, -100 = all killed)
Conditions: 10 µM unless noted
The panel holds about 83,000 compounds, 20% with a hit somewhere; the sample as a whole holds those more often.
measurement_kind: growth (%)

1) CCN(CC)c1ccc(Nc2ccc(CC(=O)c3ccccc3)cc2)cc1 : 79.9
2) COc1ccc(/C=C2\C=C(c3ccccc3)N(CCc3ccccc3)C2=O)cc1OC : 38.5
3) Nc1c(-c2nc3ccc(Br)cc3c(=O)[nH]2)nnn1-c1ccccc1 : 102
4) COc1cc2oc(-c3cccc(C(=O)Nc4ccc(C)cc4)c3)cc(=O)c2c(OC)c1OC : -60.3
5) O=C(NCOC(O)C(Cl)(Cl)Cl)NCOC(O)C(Cl)(Cl)Cl (stereo not given) : 102
6) O=[N+]([O-])c1ccc2[nH]cc(-c3c4ccsc4cc4[nH]c5ccc([N+](=O)[O-])cc5c34)c2c1 : -7.86
7) Cc1nc(Nc2ccc(NC(=S)Nc3ccccc3)cc2)nc2nc(Nc3ccc(S(=O)(=O)O)cc3)[nH]c(=O)c12 : 117
8) CN(C)c1ccc(/C=C/c2c(F)cccc2F)cc1 : 94.9
9) O=c1[nH]nc(-c2ccc(Cl)cc2)cc1Cc1ccccc1 : 105
10) CCn1c(Sc2nnc(NC(=O)CCN3CCCC3)s2)nc2c1c(=O)n(C)c(=O)n2C : 104
